SYSTEM UNDER TEST: LZK (Homo sapiens (Human), UniProt O43283)
Sequence (O43283 168-409): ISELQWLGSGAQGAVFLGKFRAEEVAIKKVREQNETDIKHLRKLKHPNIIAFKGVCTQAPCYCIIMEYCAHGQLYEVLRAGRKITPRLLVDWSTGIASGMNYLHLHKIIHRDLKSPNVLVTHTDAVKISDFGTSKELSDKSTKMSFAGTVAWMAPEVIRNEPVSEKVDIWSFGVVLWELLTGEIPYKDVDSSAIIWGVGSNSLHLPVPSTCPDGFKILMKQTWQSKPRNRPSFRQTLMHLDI
pIC50: −log10 of the molar value.
MEASURED ATTRIBUTE: pIC50

For orientation, consider the following solved cases.
MOLECULE	pIC50
NC(=O)c1cc(-c2csc(C(=O)NCc3ccc(F)cc3)c2)cn2nc(N)nc12	6.32
Cc1c(-c2ccc3nc(N)nn3c2)csc1C(=O)N[C@@H](C)c1ccc(F)cc1	4.70

(1) CC[C@@H](NC(=O)c1cc(-c2cc(C(=O)N[C@H]3CCOC3)c3nc(N)nn3c2)cs1)c1ccc(F)cc1
(2) C[C@H](NC(=O)c1cc(-c2cc(C(=O)NC3CCNC3)c3nc(N)nn3c2)cs1)c1ccccc1 (single isomer, unassigned)
Please indicate which entry, 1 or 2 , has the lower recorded pIC50 value. Refer to your chosen entry by its label in the reply.
2
